# Tested on: SR leukemia
# protocolNotes: NCI-60 one-dose screen, 48 h
# experimentalConditions: 10 µM unless noted
The panel holds about 83,000 compounds, 20% with a hit somewhere; the sample as a whole holds those more often. Active and inactive are the calls of the source. How the source made its calls: active means growth percent below 10; inactive means the rest.
Classes used: active, inactive

[
  {
    "compound": "Cc1cc(NCCCNc2ccnc3cc(Cl)ccc23)nc(Nc2ccc(C(=O)N3CCCCC3)cc2)n1",
    "classAssignment": "active"
  },
  {
    "compound": "Cc1sc2nc(NCCN)[nH]c(=O)c2c1C",
    "classAssignment": "inactive"
  },
  {
    "compound": "Cc1cccc(-c2nc(C(C)C)sc2-c2ccnc(NCCCNS(=O)(=O)c3ccc(Cl)cc3)c2)c1",
    "classAssignment": "inactive"
  },
  {
    "compound": "O=C(/C=C/c1ccco1)Nc1ncc(Cc2cc(Cl)ccc2Cl)s1",
    "classAssignment": "inactive"
  },
  {
    "compound": "S=c1ccnc[nH]1",
    "classAssignment": "inactive"
  },
  {
    "compound": "CCOC(=O)c1ccc[nH]1",
    "classAssignment": "inactive"
  },
  {
    "compound": "CCN1CCN(CCNc2nccc(-c3c(-c4ccc(F)c(O)c4)nc4occn34)n2)S1(=O)=O",
    "classAssignment": "inactive"
  },
  {
    "compound": "CCN(CC)CCOc1ccc2c(-c3ccccc3)c(-c3ccc(OC)cc3)c(=O)oc2c1",
    "classAssignment": "inactive"
  },
  {
    "compound": "CCOC(=O)c1c(C)nc2ccccc2c1/C=C/c1ccc(F)cc1",
    "classAssignment": "inactive"
  },
  {
    "compound": "O=C(Nc1cccnc1Nc1ccccc1)c1cn(Cc2cccc(Oc3ccccc3)c2)nn1",
    "classAssignment": "inactive"
  },
  {
    "compound": "CCNC(=O)N1CCc2c(Br)c3c(c(OC)c2C1Cc1ccc(OC)cc1)OCO3 (stereo unspecified)",
    "classAssignment": "inactive"
  }
]

---

# System: LOX IMVI melanoma
# protocolNotes: NCI-60 one-dose screen, 48 h (100 = growth as untreated, 0 = no growth, -100 = all killed)
# experimentalConditions: 10 µM unless noted
# Experimental: Growth inhibition of the LOX IMVI human tumor cell line is measured as a screen for anti-cancer activity. Cells are grown in 96 well plates and exposed to the test compound for 48 hours. Compounds are tested at a single concentration, which is 10^-5 M for most compounds. The reported endpoint is percent growth (GI% or GIPRCNT), where numbers from 0 - 100% represent growth inhibition, and numbers from -100% - 0 represent cell death. For example, a value of 40 represents 60% growth inhibition. […]
About 83,000 compounds went through this panel and 20% of them were active in at least one assay; those are over-represented in the sample as a whole.
If the reported growth equals or exceeds 80%, assign Criterion met. If not, assign Criterion not met.

[
  {
    "molecule": "COc1cc([C@@H](CCO)C[C@H](C)c2ccc3ccccc3c2)cc(OC)c1OC",
    "assaySystem": "LOX IMVI melanoma",
    "classAssignment": "Criterion not met"
  },
  {
    "molecule": "CC1SC(c2ccccc2O)N(NC(=O)CCC(=O)c2nc3ncccc3[nH]2)C1=O (stereo not given)",
    "assaySystem": "LOX IMVI melanoma",
    "classAssignment": "Criterion met"
  },
  {
    "molecule": "CCOC(=O)NC(=S)n1oc(=O)c2ccccc21",
    "assaySystem": "LOX IMVI melanoma",
    "classAssignment": "Criterion met"
  },
  {
    "molecule": "CCCn1c(=S)sc2c(NNC(C)=O)nc(C)nc21",
    "assaySystem": "LOX IMVI melanoma",
    "classAssignment": "Criterion met"
  },
  {
    "molecule": "CCOC(=O)c1cnn(CC(C)O)c1NC(=O)NCc1ccccc1C(F)(F)F (stereo not given)",
    "assaySystem": "LOX IMVI melanoma",
    "classAssignment": "Criterion met"
  },
  {
    "molecule": "CCCCCc1ccc(S(=O)(=O)Nc2cc(-c3csc(NC(C)=O)n3)ccc2N2CCN(C)CC2)cc1",
    "assaySystem": "LOX IMVI melanoma",
    "classAssignment": "Criterion not met"
  },
  {
    "molecule": "COc1cc(O)c2c(=O)c3c(CC=C(C)C)cc(OC)c(O)c3oc2c1",
    "assaySystem": "LOX IMVI melanoma",
    "classAssignment": "Criterion not met"
  },
  {
    "molecule": "O=CN1N=C(c2cccc(Nc3ccnc4cc(Cl)ccc34)c2)CC1c1ccc(Cl)cc1 (stereo not given)",
    "assaySystem": "LOX IMVI melanoma",
    "classAssignment": "Criterion not met"
  },
  {
    "molecule": "Nc1ccc(Br)cc1C(F)(F)F",
    "assaySystem": "LOX IMVI melanoma",
    "classAssignment": "Criterion met"
  },
  {
    "molecule": "CCN1C2CCC1/C(=C\\c1ccccc1)C(=O)/C2=C/c1ccccc1",
    "assaySystem": "LOX IMVI melanoma",
    "classAssignment": "Criterion not met"
  },
  {
    "molecule": "Cc1c2ccccc2nc2cc3c(cc12)[C@H]1CC[C@]2(C)C(=O)CC[C@H]2[C@@H]1CC3",
    "assaySystem": "LOX IMVI melanoma",
    "classAssignment": "Criterion met"
  },
  {
    "molecule": "O=C(c1ccc(Br)cc1)C(Br)C(c1ccc(Cl)cc1)C(c1ccccc1)[N+](=O)[O-] (stereo not given)",
    "assaySystem": "LOX IMVI melanoma",
    "classAssignment": "Criterion met"
  },
  {
    "molecule": "CCCCC#Cc1c(I)n(C2OC(CO[Si](C)(C)C(C)(C)C)C3OC(C)(C)OC32)c(=O)n(C(=O)c2ccccc2)c1=O (stereo not given)",
    "assaySystem": "LOX IMVI melanoma",
    "classAssignment": "Criterion not met"
  },
  {
    "molecule": "CCn1cc(C(=O)N/N=C/c2cccc(F)c2)c(=O)c2cc(F)c(N3CCNC(C)C3)c(F)c21 (stereo not given)",
    "assaySystem": "LOX IMVI melanoma",
    "classAssignment": "Criterion not met"
  },
  {
    "molecule": "COc1ccc(C/C(C)=C(\\c2ccc(O)cc2)c2ccc(OCCN3CCCCC3)cc2)cc1",
    "assaySystem": "LOX IMVI melanoma",
    "classAssignment": "Criterion met"
  },
  {
    "molecule": "COc1cc(C=Nc2oc(-c3ccccc3)c(-c3ccccc3)c2C#N)cc(CN2CCCC2)c1O",
    "assaySystem": "LOX IMVI melanoma",
    "classAssignment": "Criterion met"
  },
  {
    "molecule": "CCOC(=O)c1ccc[nH]1",
    "assaySystem": "LOX IMVI melanoma",
    "classAssignment": "Criterion met"
  },
  {
    "molecule": "C[C@@H]1NC(=O)[C@H](Cc2ccccc2)N(Cc2cccnc2)C1=O",
    "assaySystem": "LOX IMVI melanoma",
    "classAssignment": "Criterion met"
  },
  {
    "molecule": "CCN1C(=O)N(CC)C2C1NN=c1s/c(=C\\c3ccc(OC)cc3)c(=O)n12 (stereo not given)",
    "assaySystem": "LOX IMVI melanoma",
    "classAssignment": "Criterion not met"
  }
]
